Entry source: patent US8987249B2

Catalogue of compounds with associated IC50
# Test Target: recombinant human DPPI (Cathepsin C) (Homo sapiens (Human), UniProt P53634)
# Sequence (P53634 231-394): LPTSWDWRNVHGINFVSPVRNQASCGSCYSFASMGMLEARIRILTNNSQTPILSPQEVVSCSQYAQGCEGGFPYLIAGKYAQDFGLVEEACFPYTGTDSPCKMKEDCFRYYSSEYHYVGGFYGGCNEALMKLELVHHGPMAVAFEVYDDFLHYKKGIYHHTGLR
# Sequence (P53634 395-463): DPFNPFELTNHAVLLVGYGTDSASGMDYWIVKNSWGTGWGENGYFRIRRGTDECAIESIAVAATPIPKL
# Sequence (P53634 25-134): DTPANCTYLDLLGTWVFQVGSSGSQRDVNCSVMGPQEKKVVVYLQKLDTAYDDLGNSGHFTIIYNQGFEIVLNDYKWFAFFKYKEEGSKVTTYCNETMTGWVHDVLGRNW
# Test Protocol: Inhibition of human DPPI (Cathepsin C)
# Conditions: substrate Gly-Arg-AMC
Assay Endpoint: IC50 (nM)

compound=N#C[C@H](Cc1ccc(-c2ccc(C(=O)N3CCOCC3)cc2)cc1F)NC(=O)[C@H]1N[C@@H]2CC[C@H]1C2 test_target="recombinant human DPPI (Cathepsin C) (Homo sapiens (Human), UniProt P53634)" assay_endpoint=IC50 result_unit=nM value=22.9
compound="N#CC(Cc1ccc2c(cnc3cc(F)ccc32)c1)NC(=O)[C@H]1N[C@@H]2CC[C@H]1C2 (stereo partly shown)" test_target="recombinant human DPPI (Cathepsin C) (Homo sapiens (Human), UniProt P53634)" assay_endpoint=IC50 result_unit=nM value=13.5
compound=CNS(=O)(=O)c1ccc(-c2ccc(C[C@@H](C#N)NC(=O)[C@H]3N[C@H]4C[C@@H]3[C@@H]3C[C@@H]34)c(F)c2)cc1 test_target="recombinant human DPPI (Cathepsin C) (Homo sapiens (Human), UniProt P53634)" assay_endpoint=IC50 result_unit=nM value=38.6
compound=Cn1nc(C(F)(F)F)cc1-c1ccc(C[C@@H](C#N)NC(=O)[C@H]2N[C@@H]3CC[C@H]2C3)c(F)c1 test_target="recombinant human DPPI (Cathepsin C) (Homo sapiens (Human), UniProt P53634)" assay_endpoint=IC50 result_unit=nM value=22.3
compound=CN1CCN(C(=O)c2ccc(-c3ccc(C[C@@H](C#N)NC(=O)[C@H]4N[C@@H]5CC[C@H]4C5)c(F)c3)cc2)CC1 test_target="recombinant human DPPI (Cathepsin C) (Homo sapiens (Human), UniProt P53634)" assay_endpoint=IC50 result_unit=nM value=9
compound="CC(=O)c1ccc(-c2ccc(CC(C#N)NC(=O)[C@H]3N[C@@H]4CC[C@H]3C4)c(F)c2)s1 (stereo partly shown)" test_target="recombinant human DPPI (Cathepsin C) (Homo sapiens (Human), UniProt P53634)" assay_endpoint=IC50 result_unit=nM value=10.8
compound=CN1CCO[C@H]2CN(c3ccc(C[C@@H](C#N)NC(=O)[C@H]4N[C@@H]5CC[C@H]4C5)c(F)c3)CC[C@@H]21 test_target="recombinant human DPPI (Cathepsin C) (Homo sapiens (Human), UniProt P53634)" assay_endpoint=IC50 result_unit=nM value=33.8
